Reported Median Survival by item:
Test system: melanotic melanoma B16 tumor
Test: Melanotic Melanoma B16 test
Format: in vivo, BDF1 mice
Conditions: dose 1.5 mg/kg intraperitoneally on days 1, 5 and 9; BDF1 mice
Recorded Endpoint: Median Survival (days)

1. Cl.Cl.NCCNc1ccc(NCCN)c2c1C(=O)c1c(O)ccc(O)c1C2=O [reference compound] ... 46.5
2. Cl.Cl.N[C@@H](CCC(=O)O)C(=O)NCCNc1ccc(NCCNC(=O)[C@@H](N)CCC(=O)O)c2c1C(=O)c1c(O)ccc(O)c1C2=O (relative stereo) [Example 23] ... 31.0
3. Br.Br.Br.Br.NCCCC[C@H](N)C(=O)NCCNc1ccc(NCCNC(=O)[C@@H](N)CCCCN)c2c1C(=O)c1c(O)ccc(O)c1C2=O (relative stereo) [Example 33] ... 37.5
4. C[C@@H](O)[C@H](N)C(=O)NCCNc1ccc(NCCNC(=O)[C@@H](N)[C@@H](C)O)c2c1C(=O)c1c(O)ccc(O)c1C2=O.O=C(O)C(F)(F)F.O=C(O)C(F)(F)F (relative stereo) [Example 26] ... 39.5
5. Cl.Cl.NCC(=O)NCCNc1ccc(NCCNC(=O)CN)c2c1C(=O)c1c(O)ccc(O)c1C2=O [Example 19] ... 28.0
